- Test system: Plasmodium berghei
- protocol-text: Screen against P. berghei liver stage (PbLuc), transformed with Luciferase, at 10uM
- Type: functional, HepG2
- cond: tested at 10 uM
Among all 69,000 compounds or so, about 8,600 (12%) showed an effect of 50% or more. This excerpt belongs to a sample that is enriched for strong results.
Catalogue of INHIBITION values
parameter-measured: INHIBITION (%)

INSERT INTO measurements (compound, parameter_measured, endpoint_unit, measurement) VALUES
  ('CC(C)c1nc(C2CCCN(C(=O)CCc3cscn3)C2)no1 (configuration not stated)', 'INHIBITION', '%', -43.5),
  ('CCN(CC)Cc1ccc(C(=O)N2CCN(CC(C)O)CC2)o1 (configuration not stated)', 'INHIBITION', '%', 21.5),
  ('COc1ccnc(N2CCC(=O)N(CC3CC3)C(C(C)C)C2)n1 (configuration not stated)', 'INHIBITION', '%', 50.3),
  ('CC(C)(C)c1noc(CCC(=O)N2CCN(Cc3ccco3)CC2)n1', 'INHIBITION', '%', 19.9),
  ('O=C(c1cc2ccccc2[nH]1)N1CCC(Nc2cccnn2)CC1', 'INHIBITION', '%', 31.2),
  ('Cc1nccc(N2CCC(=O)N(CC3CC3)C(C(C)C)C2)n1 (configuration not stated)', 'INHIBITION', '%', 27.2),
  ('O=C1CC2(CCCCN2C(=O)c2ccsc2)CN1CC1CC1 (configuration not stated)', 'INHIBITION', '%', 37.4),
  ('COc1ccnc(CNc2nc(C)nc(C)c2C)c1', 'INHIBITION', '%', -27.6),
  ('Cc1nc(N2C[C@H]3CNC[C@H]3C2)c2sccc2n1', 'INHIBITION', '%', 55.6),
  ('Fc1cccc(-c2nnn3c2COCC(CNCc2nccs2)C3)c1 (configuration not stated)', 'INHIBITION', '%', 47.5),
  ('O=C(c1ccc(F)c(F)c1)N1C[C@H]2CNC[C@H]2C1', 'INHIBITION', '%', 5.04),
  ('Cc1ccc(C(=O)N2CCc3ncc(Cn4cccn4)n3CC2)o1', 'INHIBITION', '%', 16.4),
  ('N#Cc1ccc(Cl)cc1NCC1CCOC1 (configuration not stated)', 'INHIBITION', '%', -10.5),
  ('CN(C)CC1CN(c2ncnc3ccsc23)CCO1 (configuration not stated)', 'INHIBITION', '%', 30.8),
  ('O=C(c1ccc(S(=O)(=O)NCC(F)F)cc1)N1CC[C@H]2CNC[C@H]21', 'INHIBITION', '%', 43.7),
  ('Cc1cc(CN2CCCC(Cn3cncn3)C2)on1 (configuration not stated)', 'INHIBITION', '%', 35.3),
  ('Fc1cccc(-c2nnn3c2COC(CNCc2ccsc2)C3)c1 (configuration not stated)', 'INHIBITION', '%', 52),
  ('COc1ccnc(CNc2nc(C)nc3ccsc23)c1', 'INHIBITION', '%', 76.9),
  ('Fc1cccc(-c2nnn3c2COC(CNCc2cccs2)C3)c1 (configuration not stated)', 'INHIBITION', '%', 1.9),
  ('CC(=O)Nc1nc(C(=O)N2CCCC(n3nc(C)cc3C)C2)cs1 (configuration not stated)', 'INHIBITION', '%', 57.8),
  ('Cc1nc(N2C[C@@H](CN3CCCCC3)[C@@H](CO)C2)c2sccc2n1', 'INHIBITION', '%', 46.4),
  ('O=C(c1ccc(Cl)cc1)N1CCC(N2CCOC2=O)CC1', 'INHIBITION', '%', 41.6);
